target: SARS-CoV-2 RNA Polymerase (RdRp) (Severe acute respiratory syndrome coronavirus 2, UniProt P0DTD1); assay: SARS-CoV-2 RNA Polymerase (RdRp) Assay Kit, fluorescent enzymatic activity in vitro
pEC50: −log10 of the molar value.
measuredAttribute: pEC50

Request: What value of measured pEC50 is listed for Cc1cccc(C)c1OCC(=O)N[C@@H](Cc1ccccc1)[C@@H](O)C[C@H](Cc1ccccc1)NC(=O)[C@H](C(C)C)N1CCCNC1=O [Lopinavir, reference compound] ?
Result: < 4.30

* * *

molecular target: SARS-CoV-2 RNA Polymerase (RdRp) (Severe acute respiratory syndrome coronavirus 2, UniProt P0DTD1); experiment: SARS-CoV-2 RNA Polymerase (RdRp) Assay Kit, fluorescent enzymatic activity in vitro; type: biochemical; settings: summary of Tables 1 and 2
measuredAttribute: inhibition of SARS-CoV-2 RNA replication (in words)

sampleSmiles	result
O=C(O)C[C@@H]1C(=O)O[C@H]2[C@@H]3OC(=O)c4cc(O)c(O)c(O)c4-c4c(cc(O)c(O)c4O)C(=O)OC[C@H]2O[C@@H](OC(=O)c2cc(O)c(O)c(O)c2)[C@@H]3OC(=O)c2cc(O)c(O)c3c2[C@H]1[C@H](O)C(=O)O3	marked inhibition
O=C(OC[C@H]1O[C@@H](OC(=O)c2cc(O)c(O)c(O)c2)[C@H](OC(=O)c2cc(O)c(O)c(O)c2)[C@@H](OC(=O)c2cc(O)c(O)c(O)c2)[C@@H]1OC(=O)c1cc(O)c(O)c(O)c1)c1cc(O)c(O)c(O)c1	marked inhibition
O=C(O)C[C@H]1C(=O)O[C@H]2[C@H](OC(=O)c3cc(O)c(O)c(O)c3)[C@@H](OC(=O)c3cc(O)c(O)c4c3[C@H]1[C@H](O)C(=O)O4)[C@H](OC(=O)c1cc(O)c(O)c(O)c1)O[C@@H]2COC(=O)c1cc(O)c(O)c(O)c1	marked inhibition
